Data origin: patent US20260070975A1

Molecular target: T1, c-Kit expressed on the cell surface of M-07e cells (human, UniProt P10721 26-976)
T1 construct: whole, on cells; also called cell surface expressed c-Kit; CD117
T1 sequence (P10721 26-976): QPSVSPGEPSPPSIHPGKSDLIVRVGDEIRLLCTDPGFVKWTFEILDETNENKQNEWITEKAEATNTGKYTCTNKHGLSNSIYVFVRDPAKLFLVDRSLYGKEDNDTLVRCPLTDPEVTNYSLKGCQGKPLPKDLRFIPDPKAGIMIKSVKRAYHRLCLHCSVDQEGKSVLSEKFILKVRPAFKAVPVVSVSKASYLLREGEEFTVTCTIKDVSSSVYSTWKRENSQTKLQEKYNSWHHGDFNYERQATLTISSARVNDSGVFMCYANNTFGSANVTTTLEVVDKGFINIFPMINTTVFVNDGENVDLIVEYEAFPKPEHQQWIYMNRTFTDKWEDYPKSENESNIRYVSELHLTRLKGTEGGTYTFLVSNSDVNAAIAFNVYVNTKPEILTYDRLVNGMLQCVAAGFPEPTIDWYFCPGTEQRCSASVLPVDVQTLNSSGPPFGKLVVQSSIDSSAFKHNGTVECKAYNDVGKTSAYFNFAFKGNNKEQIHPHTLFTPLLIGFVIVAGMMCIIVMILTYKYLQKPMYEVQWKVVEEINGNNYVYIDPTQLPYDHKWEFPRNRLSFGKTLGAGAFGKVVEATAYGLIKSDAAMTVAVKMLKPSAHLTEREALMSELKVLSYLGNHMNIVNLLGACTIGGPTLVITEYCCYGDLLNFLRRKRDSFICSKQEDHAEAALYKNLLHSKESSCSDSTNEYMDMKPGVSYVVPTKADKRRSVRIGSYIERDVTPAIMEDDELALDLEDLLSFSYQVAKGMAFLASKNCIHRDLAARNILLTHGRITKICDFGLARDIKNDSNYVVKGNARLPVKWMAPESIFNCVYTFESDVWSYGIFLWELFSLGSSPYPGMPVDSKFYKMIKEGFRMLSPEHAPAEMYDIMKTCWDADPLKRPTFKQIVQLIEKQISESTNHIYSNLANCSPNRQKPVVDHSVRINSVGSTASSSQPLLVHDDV
Test: flow cytometry on M-07e cells
Description: Target binding of c-Kit antibodies to c-Kit-expressing cells was assessed by flow cytometry. Cultured M-07e cells were resuspended in FACS Blocking Buffer (PBS+10% normal human serum) for 30 minutes. […] Antibody binding to cells was quantitated by measuring fluorescent emissions of excitation wavelength of 561 nm using a 586/15 nm filter. […]
Assign Percent Positive for c-Kit on M-07e cells to each entry below.
Numeric answer only, unit % assumed.

Ask: Entry hSR1-3 (antibody, human IgG1, kappa, V domains shown, also called humanized SR1-3; hSR1-H2b / hSR1-L2) VH: QVQLVQSGAEVKKPGASVKVSCKASGYTFTSYNMHWVRQAPGQGLEWMGVIYSGNGDTSYAQKFQGRVTMTADKSTSTAYMELSSLRSEDTAVYYCARERDTRFGNWGQGTLVTVSS VL: DIQLTQSPSSLSASVGDRATITCRASESVDIYGNSFMHWYQQKPGKAPKLLIYLASNLESGVPSRFSGSGSGTDFTLTISSVQPEDFATYYCQQNNEDPYTFGQGTKLEIKR has what Percent Positive for c-Kit on M-07e cells?
Result: 99.8

Ask: Entry hSR1-2 (antibody, human IgG1, kappa, V domains shown, also called humanized SR1-2; hSR1-H3 / hSR1-L2) VH: QVQLVQSGAEVKKPGASVKMSCKASGYTFTSYNMHWVRQAPGQGLEWIGVIYSGNGDTSYAQKFQGRATLTADTSTSTAYMELSSLRSEDTAVYYCARERDTRFGNWGQGTLVTVSS VL: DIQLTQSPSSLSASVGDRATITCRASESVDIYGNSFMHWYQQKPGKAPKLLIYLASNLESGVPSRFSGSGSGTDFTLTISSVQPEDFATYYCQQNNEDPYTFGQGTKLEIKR has what Percent Positive for c-Kit on M-07e cells?
Result: 99.7
